Target: Nitric oxide synthase, inducible (Homo sapiens, UniProt P35228)
Sequence (P35228 whole entry): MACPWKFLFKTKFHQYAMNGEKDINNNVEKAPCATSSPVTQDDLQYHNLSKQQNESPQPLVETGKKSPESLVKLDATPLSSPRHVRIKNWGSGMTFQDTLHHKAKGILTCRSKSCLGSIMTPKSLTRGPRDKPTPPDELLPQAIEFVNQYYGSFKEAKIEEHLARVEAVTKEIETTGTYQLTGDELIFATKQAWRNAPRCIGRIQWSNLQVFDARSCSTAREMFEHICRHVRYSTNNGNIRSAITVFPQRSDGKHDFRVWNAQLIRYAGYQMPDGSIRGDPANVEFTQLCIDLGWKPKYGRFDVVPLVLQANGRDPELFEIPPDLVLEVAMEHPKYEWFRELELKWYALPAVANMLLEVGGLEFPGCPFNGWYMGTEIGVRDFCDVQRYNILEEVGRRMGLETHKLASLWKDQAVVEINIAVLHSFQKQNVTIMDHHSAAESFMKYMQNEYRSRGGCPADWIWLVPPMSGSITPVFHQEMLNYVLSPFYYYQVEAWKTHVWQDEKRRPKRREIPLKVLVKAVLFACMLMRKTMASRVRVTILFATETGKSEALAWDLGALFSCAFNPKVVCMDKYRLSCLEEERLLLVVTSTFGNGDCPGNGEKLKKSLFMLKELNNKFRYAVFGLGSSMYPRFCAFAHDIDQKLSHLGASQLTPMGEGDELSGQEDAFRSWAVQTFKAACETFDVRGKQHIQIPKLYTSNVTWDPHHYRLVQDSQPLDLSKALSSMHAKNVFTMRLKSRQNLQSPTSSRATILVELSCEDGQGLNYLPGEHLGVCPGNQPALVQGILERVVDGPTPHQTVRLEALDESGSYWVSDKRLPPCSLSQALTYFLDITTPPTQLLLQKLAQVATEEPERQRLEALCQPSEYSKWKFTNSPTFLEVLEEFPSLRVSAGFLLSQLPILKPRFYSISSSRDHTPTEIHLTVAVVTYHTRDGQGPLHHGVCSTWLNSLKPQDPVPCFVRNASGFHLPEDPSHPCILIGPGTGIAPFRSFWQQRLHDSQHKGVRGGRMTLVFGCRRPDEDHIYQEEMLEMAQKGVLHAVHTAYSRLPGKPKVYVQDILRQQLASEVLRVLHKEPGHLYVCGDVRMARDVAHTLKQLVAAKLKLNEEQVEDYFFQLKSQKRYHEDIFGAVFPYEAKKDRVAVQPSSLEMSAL
Test: Inhibition of human iNOS expressed in HEK293 cells assessed as NO production by transient transfection assay
pEC50: −log10 of the molar value.
Give 1 (yes) when the value for pEC50 is at least 8. Give 0 (no) when it is less.

| chem.smiles | class.assignment |
| --- | --- |
| Cc1ncsc1C(=O)N(Cc1cc(=O)[nH]c2c(F)c(F)ccc12)c1cccc(Cl)c1 | 1 (yes) |
| O=C(c1ccco1)N(Cc1cc(=O)[nH]c2ccccc12)c1ccccc1 | 0 (no) |
| Cc1ncsc1C(=O)N(Cc1c[n+]([O-])cc2c(F)c(F)ccc12)c1cccc(Cl)c1 | 0 (no) |
| Cc1ccncc1C(=O)N(Cc1cc(=O)[nH]c2c(F)cccc12)c1cccc(Cl)c1 | 0 (no) |
